Reference for the values: patent US8410107B2

Exercise: for every item that follows, state its recorded pEC50.
# Tested on: ABCA1 protein
# method: Detection of upregulation of ABCA1 protein in cells (ApoA-I binding, high content image analysis)
# Format: cell-based
# experimentalConditions: ABCA1 protein increasing efficacy; THP-1 macrophage cells
Numbers only, as −log10 of the molar value.

Consider the worked cases shown below.
>  <compound>
Cc1cc(-c2cc(NC(=O)c3cccnn3)cnc2OCC(F)(F)F)ccc1Cl [Example 62]

>  <pEC50>
5.62

$$$$
>  <compound>
CCc1ccc(-c2cc(NC(=O)c3cccnc3)cnc2OCC(F)(F)F)cc1 [Example 47]

>  <pEC50>
5.87

$$$$
>  <compound>
O=C(Nc1cnc(OCC(F)(F)F)c(-c2ccc(Cl)c(F)c2)c1)c1cccnn1 [Example 63]

>  <pEC50>
6.17

$$$$
>  <compound>
Cc1nc(C)c(C(=O)Nc2cnc(OCC(F)(F)F)c(-c3ccc(Cl)cc3)c2)o1 [Example 21]

>  <pEC50>
5.86

$$$$

With those in mind, consider the next compound.
[ask] Quick one: pEC50 for O=C(Nc1cnc(OCC(F)(F)F)c(-c2ccc(Cl)cc2F)c1)c1cccnn1 [Example 64] ?
[reply] 5.97

---

Exercise: for every item that follows, state its recorded inhibition at 10 µM.
# measuredTarget: human CB2 receptor (Homo sapiens, UniProt P34972)
# Construct: expressed in transfected cells; host or cells: human embryonic kidney (HEK) cells, Semliki Forest Virus system, membrane preparations
# Sequence (P34972 whole entry): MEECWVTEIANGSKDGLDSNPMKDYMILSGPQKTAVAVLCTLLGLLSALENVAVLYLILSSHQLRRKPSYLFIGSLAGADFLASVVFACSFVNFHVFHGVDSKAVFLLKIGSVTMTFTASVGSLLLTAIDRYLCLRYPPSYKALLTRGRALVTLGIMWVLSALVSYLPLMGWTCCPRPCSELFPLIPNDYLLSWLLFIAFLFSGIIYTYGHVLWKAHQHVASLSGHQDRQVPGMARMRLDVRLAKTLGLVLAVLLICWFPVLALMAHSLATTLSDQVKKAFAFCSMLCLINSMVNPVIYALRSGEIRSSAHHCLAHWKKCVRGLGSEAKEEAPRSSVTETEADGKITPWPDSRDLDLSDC
# method: CB2 receptor affinity ([3H]-CP-55,940 displacement, HEK cell membranes)
# Assay type: binding
# experimentalConditions: displacement of radioligand [3H]-CP-55,940
Numbers only, in %.

Consider the worked cases shown below.
>  <molecule>
COC(C)C(=O)Nc1cnc(OCC(F)(F)F)c(-c2ccc(Cl)cc2)c1 (stereo not drawn)

>  <inhibition at 10 µM, %>
5

$$$$
>  <molecule>
O=C(Nc1cnc(OCC(F)(F)F)c(-c2ccc(Cl)c(F)c2)c1)c1cccnc1

>  <inhibition at 10 µM, %>
14

$$$$

Answer for every listed entry: what is its inhibition at 10 µM? The entries follow.
1. O=C(Nc1cnc(OCC(F)(F)F)c(-c2ccc(F)c(Cl)c2)c1)c1cncnc1
2. COc1cncc(C(=O)Nc2cnc(OCC(F)(F)F)c(-c3ccc(Cl)cc3)c2)c1
3. O=C(Nc1cnc(OCC(F)(F)F)c(-c2ccc(Cl)cc2)c1)c1cncc(Br)c1
4. Cc1cc(C(=O)Nc2cnc(OCC(F)(F)F)c(-c3ccc(Cl)cc3)c2)ccn1
5. Cc1ccc(C(=O)Nc2cnc(OCC(F)(F)F)c(-c3ccc(Cl)cc3)c2)cn1
6. CC(=O)Nc1cnc(OCC(F)(F)F)c(-c2ccc(Cl)cc2)c1

[reply]
[10, 16, 5, -1, -6, -5.4]

Answer for every listed entry: what is its inhibition at 10 µM? The entries follow.
1. CCc1ccc(-c2cc(NC(=O)c3cccnc3)cnc2OCC(F)(F)F)cc1
2. O=C(Nc1cnc(OC2CCC2)c(-c2ccc(Cl)cc2)n1)c1cncnc1
3. Cc1ccc(C(=O)Nc2cnc(OCC(F)(F)F)c(-c3ccc(Cl)cc3)c2)o1
4. O=C(Nc1cnc(OCC(F)(F)F)c(-c2ccc(Cl)cc2)c1)c1ccccc1
5. Cc1ocnc1C(=O)Nc1cnc(OC2CCC2)c(-c2ccc(Cl)cc2)c1
6. Cc1cc(C(=O)Nc2cnc(OCC(F)(F)F)c(-c3ccc(Cl)cc3)c2)n(C)n1

[reply]
1: 5; 2: 6; 3: 4; 4: 4.9; 5: 37; 6: 3

Answer for every listed entry: what is its inhibition at 10 µM? The entries follow.
1. O=C(Nc1cnc(OCC(F)(F)F)c(-c2ccc(Cl)cc2)c1)c1ccno1
2. CNC(=O)c1ccc(C(=O)Nc2cnc(OCC(F)(F)F)c(-c3ccc(Cl)cc3)c2)cn1
3. CNC(=O)c1cncc(C(=O)Nc2cnc(OCC(F)(F)F)c(-c3ccc(Cl)cc3)c2)c1
4. O=C(Nc1cnc(OCC(F)(F)F)c(-c2ccc(Cl)cc2)n1)c1cccnc1
5. O=C(Nc1cnc(OCC(F)(F)F)c(-c2ccc(Cl)cc2)c1)c1nccs1

[reply]
[-4, 3, -15, -3, -3]

---

Exercise: for every item that follows, state its recorded inhibition at 10 µM.
# measuredTarget: human CB2 receptor (Homo sapiens, UniProt P34972)
# Construct: expressed in transfected cells; host or cells: human embryonic kidney (HEK) cells, Semliki Forest Virus system, membrane preparations
# method: CB2 receptor affinity ([3H]-CP-55,940 displacement, HEK cell membranes)
# Type: binding
# experimentalConditions: displacement of radioligand [3H]-CP-55,940
Numbers only, in %.

Answer for every listed entry: what is its inhibition at 10 µM? The entries follow.
1. C[C@H](Oc1ncc(NC(=O)c2cccnn2)cc1-c1ccc(Cl)cc1)C(F)(F)F
2. Cn1nccc1C(=O)Nc1cnc(OCC(F)(F)F)c(-c2ccc(Cl)cc2)c1
3. Cc1nocc1C(=O)Nc1cnc(OCC(F)(F)F)c(-c2ccc(Cl)cc2)c1
4. Cn1ccc(C(=O)Nc2cnc(OCC(F)(F)F)c(-c3ccc(Cl)cc3)c2)n1
5. Cc1ocnc1C(=O)Nc1cnc(OCC(F)(F)F)c(-c2ccc(Cl)cc2)c1
6. O=C(Nc1cnc(OCC(F)(F)F)c(-c2ccc(F)cc2)c1)c1cccnc1
7. CN1CCOc2cc(C(=O)Nc3cnc(OCC(F)(F)F)c(-c4ccc(Cl)c(F)c4)c3)cnc21

[reply]
[6, 9, 10, 2, 8, 5, 5]

[ask] What value of inhibition at 10 µM on human CB2 receptor (Homo sapiens, UniProt P34972) does O=C(Nc1cnc(OCC(F)(F)F)c(-c2ccc(Cl)cc2)c1)c1ccco1 have?
[reply] 5
